The measurements presented in this section are drawn from patent US20210047372A1.

molecular target: T1, insulin (UniProt P01308 25-54; P01308 90-110, limits assumed); assay: SPR, Biacore T200; target immobilized on CM5, His6-tagged Y variant injected; 1:1 Langmuir
T1 construct: Mature insulin has two chains (A and B) from one precursor; also called b-insulin
T1 sequence (P01308 25-54 limits assumed, form in doubt, chain 1 of 2): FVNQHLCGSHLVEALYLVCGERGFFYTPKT
T1 sequence (P01308 90-110 limits assumed, form in doubt, chain 2 of 2): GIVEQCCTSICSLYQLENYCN
// log10 Kd lookup, one value per entry
Lab note - Kd converted to log10 from values in nM.

BINDER	log10 Kd
Y00125 (designed binder, Differs from Y00032 only in position 9 (N instead of I)) MGSSHHHHHHGSSLAEAKEAANAELDSKGVGAYQKSFIELAKSVEHVELLKEAILADLPASGSVD	2.04
Y00345 (designed binder, From library Ylib002Naive.I) MGSSHHHHHHGSSLAEAKEAAIAELDSKGVGAYQIKFIQVAKTVEAVQAIKQAILADLPA	1.79
Y00263 (designed binder, Y00032 with D13K) MGSSHHHHHHGSSLAEAKEAAIAELKSKGVGAYQKSFIELAKSVEHVELLKEAILADLP	2.11

Record summary for Y00272 (designed binder, Y00032 with A28G) MGSSHHHHHHGSSLAEAKEAAIAELDSKGVGAYQKSFIELGKSVEHVELLKEAILADLP : reported log10 Kd = 2.04

Record summary for Y00276 (designed binder, Y00032 with A43K) MGSSHHHHHHGSSLAEAKEAAIAELDSKGVGAYQKSFIELAKSVEHVELLKEAILKDLP : reported log10 Kd = 1.88

Record summary for Y02715 (designed binder, Y00358 with K15Y + Q26E) MGSSHHHHHHGSSLAEAKEAAIAELDSYGVGAAKIKWIEDAKSVETVQFLKQAILAELPA : reported log10 Kd = 2.45

Record summary for Y00270 (designed binder, Y00032 with K22I + S23K) MGSSHHHHHHGSSLAEAKEAAIAELDSKGVGAYQIKFIELAKSVEHVELLKEAILADLP : reported log10 Kd = 1.89

Record summary for Y02710 (designed binder, Y00358 with K15Y) MGSSHHHHHHGSSLAEAKEAAIAELDSYGVGAAKIKWIQDAKSVETVQFLKQAILAELPA : reported log10 Kd = 1.15

Record summary for Y00296b (designed binder, if it is only 46 residues long, GYS must be added) MGSSHHHHHHGSSLAEAKEAAIAELDSKGVGAYQIKFIQLAKSVEHVQLLKQAILADLPGYS : reported log10 Kd = 1.49

Record summary for Y00356a (designed binder, From library Ylib002Naive.I; if it is only 46 residues long, an A must be added at the C-terminus) MGSSHHHHHHGSSLAEAKEAAIAELDSKGVGAKYIKMIQHAHYVEVVQWLKQAILAHLPA : reported log10 Kd = -0.77

Record summary for Y02713 (designed binder, Y00310 with K15Y) MGSSHHHHHHGSSLAEAKEAAIAELDSYGVGAYQIKFIQIAHTVEEVQLMKQAILADLPA : reported log10 Kd = 2.28

Record summary for Y00296 (designed binder, Y00293 with E26Q) MGSSHHHHHHGSSLAEAKEAAIAELDSKGVGAYQIKFIQLAKSVEHVQLLKQAILADLP : reported log10 Kd = 1.57

Record summary for Y00296C (designed binder, if it is only 46 residues long, TIDEWL must be put before it) MGSSHHHHHHTIDEWLLAEAKEAAIAELDSKGVGAYQIKFIQLAKSVEHVQLLKQAILADLP : reported log10 Kd = 1.71
